# System: MDA-MB-231 cells
# PROCEDURE SUMMARY: MDA-MB-231 proliferation assay
# Type: cell-based
# EXPERIMENTAL SETUP: Homo sapiens, 72 hours, YO-PRO-1 readout
REPORTED ENDPOINT: GI50

{"columns": ["SMILES RECORD", "REPORTED ENDPOINT", "ASSAY RESULT"],
 "data": [
  ["CC1(C)/C(=N/OCCO)c2cc(Br)ccc2-c2ncnc(N)c21", "GI50", "> 2000 nM"],
  ["CC(C)O/N=C1\\c2cc(O[C@H]3CC[C@H](N)CC3)ccc2-c2ncnc(N)c2C1(C)C", "GI50", "> 2000 nM"]
]}

Continue with the next compound.
// Input: CO/N=C1\c2cc(N(C)[C@H]3CC[C@H](N)CC3)ccc2-c2ncnc(N)c2C1(C)C . Output its GI50 only.
> 2000 nM

* * *

# Test system: MDA-MB-231 cells
# PROCEDURE SUMMARY: MDA-MB-231 proliferation assay
# Format: cell-based
# EXPERIMENTAL SETUP: Homo sapiens, 72 hours, YO-PRO-1 readout
REPORTED ENDPOINT: GI50

Completed entries (count: 5):
{"columns": ["SMILES RECORD", "GI50"],
 "data": [
  ["CC1(C)/C(=N/OCCO)c2cc(O[C@H]3CC[C@H](N)CC3)ccc2-c2ncnc(N)c21", "0.445 µM"],
  ["CO/N=C1\\c2cc(C[C@H]3CC[C@H](N)CC3)ccc2-c2ncnc(N)c2C1(C)C", "0.255 µM"],
  ["COc1ccc2c(c1)/C(=N\\O[C@H]1CC[C@H](N)CC1)C(C)(C)c1c(N)ncnc1-2", "> 2 µM"],
  ["COCCN1C[C@@H](CO/N=C2\\c3cc(Br)ccc3-c3ncnc(N)c3C2(C)C)OC1=O", "0.863 µM"],
  ["COc1ccc2c(c1)/C(=N\\OC[C@@H]1CNC(=O)C1)C(C)(C)c1c(N)ncnc1-2", "> 2 µM"]
]}

Name the recorded GI50 of the molecule listed here: CC1(C)/C(=N/OCc2ccc(C#N)cc2)c2cc(O[C@H]3CC[C@H](N)CC3)ccc2-c2ncnc(N)c21
> 2 µM

Provide only the value of recorded GI50 for COc1ccc2c(c1)/C(=N\OCCCC#N)C(C)(C)c1c(N)ncnc1-2
> 2 µM

Please look at this molecule and report its GI50: CO/N=C1\c2cc(N(C)C3CCNCC3)ccc2-c2ncnc(N)c2C1(C)C
> 2 µM
